# Tested on: Human papillomavirus type 1a protein E7 (residues 44-93)
# PROTOCOL_NOTES: HPV1a E7 fragment binders on microarrays, primary screen, biochemical, small-molecule microarray, residues 44-93, 635 nm fluorescence (AID 1108);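 note: E7 fragment applied at 1 µg/mL in TBST for 1 h at 4 C; score combines spot fluorescence with its signal to noise ratio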
# TEST_CONDITIONS: small-molecule microarray binding, fluorescence 635 nm; higher = more signal
Fulfilled means recorded composite z-score is -0.1 or above; Not fulfilled means it is below -0.1.

Decide: composite z-score of `[N-]=[N+]=NCc1ccccc1C[C@]1(C(N)=O)N=C(c2ccc(OCCCO)cc2)O[C@H]1c1ccccc1` >= -0.1?
Fulfilled

Test whether the compound C[C@@H]1NC(=O)[C@@]23C(=O)N[C@@H](Cc4ccccc4)C2[C@H](C)[C@@]2(C)O[C@H]2C3/C=C/C/C=C\CNC(=O)[C@@H]2CCCN2C1=O (some centres not stated) records composite z-score of -0.1 or higher.
Not fulfilled

Test whether the compound `C[N+](C)(C)CCCCCCNC(=O)[C@H]1C[C@H]2C(=O)NCC(=O)N2[C@H]1c1ccc(O)cc1` records composite z-score of -0.1 or higher.
Fulfilled

Hello, I need to know if `CC(C)Cc1ccc(CN2CC[C@@H](NC(=O)Nc3ccccc3)C2)cc1` has measured composite z-score not below -0.1. Thanks!
Not fulfilled

Identify whether the reported composite z-score of the following compound is -0.1 or greater: `CCCC[C@@H]1C[C@H]1[C@@H](NC(=O)Cc1ccccc1)c1ccc(-c2ccccc2)cc1`
Fulfilled

Could you please find out whether `COCCOC(=O)N1C(=O)[C@@]2(c3cc(C#CCNC(N)=O)ccc31)[C@H](C(=O)N1CCc3cc(OC)c(OC)cc3C1)[C@H]1C(=O)O[C@H](c3ccccc3)[C@H](c3ccccc3)N1[C@@H]2c1ccccc1OCCO` has composite z-score that meets -0.1 or exceeds it?
Fulfilled

Assess whether reported composite z-score for `CC(C)N1C(=O)c2ccccc2[C@@H](C(=O)NC2CC2)[C@@H]1c1ccc(CO)cc1` sits at -0.1 or higher.
Not fulfilled

---

# PROTOCOL_NOTES: small-molecule microarray binders of probe aWnt5a, primary screen, biochemical, biotinylated probe, 635/667 nm fluorescence (AID 1113);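 note: score merges 667 nm fluorescence intensity with signal-to-noise per printed feature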
# TEST_CONDITIONS: higher = more signal
Quick rule: composite z-score of at least -0.04 means true (1), below that means false (0).

Could you please find out whether `COC(=O)[C@@]1(Cc2ccc(F)cc2)[C@H]2c3cc(C(=O)N4CCCC4)n(CCc4ccc(O)c(O)c4)c3C[C@H]2CN1C(=O)c1ccccc1` has composite z-score that meets -0.04 or exceeds it?
true (1)

Is composite z-score at least -0.04? Consider `C=CCN1C(=O)[C@@]2(O[C@@H](CCn3cc([C@H](O)c4ccccc4)nn3)[C@H]([Si](C)(C)c3ccc(OC)cc3)[C@H]2C)c2cc(N3CCC3=O)ccc21`
false (0)

Record `COCCOC(=O)N1C(=O)[C@@]2(c3cc(C#CC4=CCCCC4)ccc31)[C@H](C(N)=O)[C@H]1C(=O)O[C@H](c3ccccc3)[C@H](c3ccccc3)N1[C@@H]2c1ccccc1OCCO` ; criterion: composite z-score no lower than -0.04. Met?
true (1)

Say whether `COC(=O)c1ccc([C@H](NC(=O)c2ccco2)[C@]2(C)C[C@H]2C2CCCCC2)cc1` shows composite z-score of -0.04 or more.
false (0)

Please indicate if the recorded composite z-score for N#Cc1ccc(NN2C(C(O)c3ccc(F)cc3)C=CC3C(=O)N(c4ccccc4)C(=O)C32)cc1 (stereo not drawn) meets or exceeds -0.04.
true (1)

Has O=C1NC(=O)C2C1C=CC(C(O)c1c(F)cccc1Cl)N2Nc1ccc(Cl)cc1Cl (stereo not drawn) a recorded composite z-score greater than or equal to -0.04?
true (1)

Quick check, composite z-score >= -0.04? `COCCCNC(=O)[C@@]1(Sc2ccc(C)cc2)CC(=O)N(C2CCCCC2)[C@@H]1c1ccc(CO)cc1`
false (0)

---

# PROTOCOL_NOTES: COS7 lysate on small-molecule microarray, probe aHis, 635 nm (AID 1123);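 note: z-score combines 667nm fluorescence intensity with signal-to-noise per printed compound spot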
# TEST_CONDITIONS: COS7 cell lysate, fluorescence, higher = more signal
MEASURED_ENDPOINT: composite z-score
The answer should be a number; do not append a unit.

Kindly indicate its recorded composite z-score. Item: O=C1OCC=C[C@H]2OC34C=CCN(Cn5nnc6ccccc65)C(=O)[C@H]3N(CCCO)C(=O)[C@@H]4[C@@H]12 (some centres not stated)
-0.145

State, in one line, measured composite z-score of CN1C(=O)C2C=CC(C(O)COCc3ccccc3)N(N(c3ccccc3)c3ccccc3)C2C1=O (configuration not stated)
1.62

Complete the entry with composite z-score for `COCC1=C2[C@@H](CCc3ccccc3)OB(O)C[C@@H]2[C@@H]2C(=O)C=CC(=O)[C@@H]2C1`
0.883

Please report the measured composite z-score for `CCOC(=O)c1ccc(NC(=O)O[C@H]2[C@H](OC(=O)Nc3ccc4c(c3)OCO4)[C@H](OC(=O)Nc3ccc4c(c3)OCO4)[C@@H](OC)O[C@@H]2CO)cc1`
1.52

In one line, give reported composite z-score of the entry `COC(=O)c1c2oc(c1C(=O)OC)C(=O)N(Cc1ccccc1)Cc1cn(nn1)C[C@H](Cc1ccccc1)NC(=O)N[C@H](CO)CC2` .
0.87

Provide one value: measured composite z-score of `COCCOC(=O)N1C(=O)[C@@]2(c3cc(C#Cc4ccc(OC)cc4)ccc31)[C@H](c1ccccc1OCCO)N1[C@H](c3ccccc3)[C@H](c3ccccc3)OC(=O)[C@H]1[C@@H]2C(=O)N1CCCCCCC1`
2.08

Tell me composite z-score reported for Cn1cccc1C(O)C1C=CC2C(=O)NC(=O)C2N1Nc1ccc(Cl)cc1Cl (configuration not stated)
2.79

---

# PROTOCOL_NOTES: modulators of S6 phosphorylation in cells, primary screen, cell-based, A549, cytoblot, luminescence, serum-stimulated (AID 1158);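 note: serum-stimulated A549 lung adenocarcinoma cells; signal is phosphorylated S6 detected by cytoblot immunostaining with HRP secondary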
# TEST_CONDITIONS: A549 phospho-S6 cytoblot, 5 h, higher = more signal
Label scheme for z-score: lower than 0.1 is f, 0.1 and above is t.

Record COc1cc2c(cc1O)C(C)N(Cc1ccc([N+](=O)[O-])o1)CC2 (centres undefined) ; criterion: z-score no lower than 0.1. Met?
f

Check this compound for z-score at or above 0.1: `C[C@]1(C(=O)NC2CC2)c2ccccc2C(=O)N(Cc2ccccc2)[C@H]1c1ccc(CO)cc1`
t

Is z-score for `CCOC(=O)C[C@H]1[C@H](OC(=O)c2cc3ccccc3oc2=O)[C@@H](NC(=O)c2ccc(-c3ccccc3)cc2)c2cc(OCCCO)ccc2N1C(=O)c1ccccc1` at or above 0.1?
t

Would you say `C=CCN1C(=O)[C@@]2(CCS(=O)(=O)c3ccccc3)N=C(c3ccc(OCCCO)cc3)O[C@H]2c2ccccc21` shows z-score at minimum 0.1?
t

Hi team, for `COC(=O)[C@@]1(Cc2ccc(OC)cc2)[C@H]2c3cc(C(=O)N4CCCC4)n(Cc4c(-c5ccccc5)noc4C)c3C[C@H]2CN1C(=O)c1ccccc1` , is the recorded z-score at or above 0.1?
t

Has `COc1cc(CO)cc(I)c1O[C@H]1C=C(C(=O)NCCO)C[C@@H](NCc2ccc(F)cc2)[C@@H]1O` a recorded z-score greater than or equal to 0.1?
t

Given `C=C(CCCC)/C(=C/C[C@@H](OC(=O)c1ccncc1)c1ccccc1OCCO)c1cnc2ccccc2c1` , state whether its z-score is at least 0.1.
t

Tell me whether z-score is at least 0.1 here: CCOc1cc(C(O)C2C=CC3C(=O)N(C)C(=O)C3N2Nc2ccccc2)ccc1O (centres undefined)
f

Hi, just wondering whether `COCCCNC(=O)[C@@]1(Cc2ccccc2CN=[N+]=[N-])N=C(c2ccc(OCCCO)cc2)O[C@H]1c1ccccc1` shows z-score of 0.1 or higher.
t

Please tell me: is the compound C=CCC(OC(C)=O)[C@@H]1[C@@H](N(Cc2ccc(-c3cccc(C(F)(F)F)c3)o2)C(=O)c2ccc(-c3ccccc3)cc2)c2cc(OCCCO)ccc2N1C(=O)c1ccc2ccccc2n1 (some centres undefined) at or over 0.1 in terms of z-score?
t

Exam item: decide whether the reported z-score for `CCOC(=O)C[C@H]1[C@H](OC(=O)c2ccc(C(=O)c3ccccc3)cc2)[C@@H](NC(=O)Cc2ccc(OC)cc2)c2cc(OCCCO)ccc2N1C(=O)c1ccccc1` is at least 0.1.
f

Could you tell me if the measured z-score of `CC(C)C(=C=CC[C@H](O)c1ccc(OCCO)cc1)C[C@H](O)c1ccccn1` reaches 0.1 or more?
t

Decide: is the reported value of z-score for `COc1ccc([Si](C)(C)[C@@H]2[C@@H](CC(=O)N(CCO)Cc3ccccc3)O[C@]3(C(=O)N(Cc4cccc(N5C(=O)c6cccc7cccc5c67)c4)c4ccccc43)[C@H]2C)cc1` equal to or greater than 0.1?
t

Given the entry CC[C@H]1C2=C3C(CC[C@H]4C(OCc5ccc(F)cc5C(F)(F)F)OC[C@](C)([C@@H]34)N(C(=O)OC(C)(C)C)C2)C(COC)C1COC (some centres undefined) , answer whether its z-score meets or surpasses 0.1.
f

Taken from PubChem BioAssay.
